// data source = paper PMC12785511

assay: open-tubular capillary electrochromatography (CEC), permeability k′ parameter; format: in vitro ADME; conditions: pH 7.4 HEPES buffer 40 mM, migration times in coated and uncoated capillary, mean ± SD of three independent experiments
Documented k′ ± SD (CEC) across a set of molecules

[
  {
    "MOLECULE": "CCC1(c2ccccc2)C(=O)NC(=O)NC1=O",
    "k′ ± SD (CEC)": "−0.01824"
  },
  {
    "MOLECULE": "CC(C)NCC(O)COc1cccc2ccccc12 (stereo not shown)",
    "k′ ± SD (CEC)": 0.00202
  },
  {
    "MOLECULE": "CN(C)C(=O)C(CCN1CCC(O)(c2ccc(Cl)cc2)CC1)(c1ccccc1)c1ccccc1 [loperamide]",
    "k′ ± SD (CEC)": 0.0147
  },
  {
    "MOLECULE": "CCN(C)C(=O)Oc1cccc([C@H](C)N(C)C)c1",
    "k′ ± SD (CEC)": "−0.00018"
  }
]
